This collection of values is drawn from paper PMC3702004.

Below: a set of entries, each annotated with reported REP Liver EROD activity.
Tested on: hepatic CYP1A1 activity (ethoxyresorufin-O-deethylase, EROD)
experiment.summary: Hepatic EROD activity in hepatic microsomal fractions after single oral dose
Format: in vivo, female C57BL/6 mice
condition.context: relative to TCDD; dose metric Adm dose (µg/kg BW)
Procedure: Animals. Eight-week-old female C57BL/6 mice (Harlan laboratories, Venray, the Netherlands) were randomly assigned to treatment groups (six animals per group) and allowed to acclimate for 1.5 weeks. […] EROD activity. We determined hepatic CYP1A1 activity using ethoxyresorufin-O-deethylase (EROD) activity in hepatic microsomal fractions as described by [Schulz et al. (2012)]. […] Using the congener-specific BMR20TCDD concentration, REPs were calculated relatively to TCDD: […]

Some entries whose results are on file:
{"compound": "Clc1cc2c(cc1Cl)Oc1c(cc(Cl)c(Cl)c1Cl)O2 [PeCDD, 1,2,3,7,8-pentachlorodibenzodioxin]", "result": 0.5}
{"compound": "Clc1ccc(-c2cc(Cl)c(Cl)c(Cl)c2Cl)cc1Cl [PCB-156, 2,3,3´,4,4´,5-hexachlorobiphenyl]", "result": 0.00002}
{"compound": "Clc1ccc(-c2cc(Cl)c(Cl)cc2Cl)cc1Cl [PCB-118, 2,3´,4,4´,5-pentachlorobiphenyl]", "result": 0.000005}
{"compound": "Clc1cc2c(cc1Cl)Oc1cc(Cl)c(Cl)cc1O2 [TCDD, 2,3,7,8-tetrachlorodibenzodioxin, reference compound]", "result": 1}

Here is the next item to consider.
Param readout= REP Liver EROD activity; system= hepatic CYP1A1 activity (ethoxyresorufin-O-deethylase, EROD); entry= Clc1ccc(-c2cc(Cl)c(Cl)c(Cl)c2)cc1Cl [PCB-126, 3,3´,4,4´,5-pentachlorobiphenyl] ; returns value.
0.01
